selectivity ratio values by entry
Experiment: Selectivity index, ratio of CC50 for human MT4 cells to EC50 for wild type HIV1 3B infected in human MT4 cells
Format: toxicity, cell-based
Conditions: read-out: Ratio CC50/EC50
No unit in the answer, please; the number alone is enough.

# structure-string, selectivity ratio
records = [
    ("Cc1cc(C)c(Oc2cc(Nc3ccc(C#N)cc3)ncn2)c(C)c1", 870),
]

Now turn to the next compound.
Please list selectivity ratio recorded for the compound `Cc1cc(C)c(Nc2cc(Oc3c(C)cc(C#N)cc3C)ncn2)c(C)c1`
7
